Where these numbers come from: ChEMBL document CHEMBL3817768

Molecular target: SWI/SNF-related matrix-associated actin-dependent regulator of chromatin subfamily A member 4 (Homo sapiens, UniProt P51532)
Sequence (P51532 whole entry): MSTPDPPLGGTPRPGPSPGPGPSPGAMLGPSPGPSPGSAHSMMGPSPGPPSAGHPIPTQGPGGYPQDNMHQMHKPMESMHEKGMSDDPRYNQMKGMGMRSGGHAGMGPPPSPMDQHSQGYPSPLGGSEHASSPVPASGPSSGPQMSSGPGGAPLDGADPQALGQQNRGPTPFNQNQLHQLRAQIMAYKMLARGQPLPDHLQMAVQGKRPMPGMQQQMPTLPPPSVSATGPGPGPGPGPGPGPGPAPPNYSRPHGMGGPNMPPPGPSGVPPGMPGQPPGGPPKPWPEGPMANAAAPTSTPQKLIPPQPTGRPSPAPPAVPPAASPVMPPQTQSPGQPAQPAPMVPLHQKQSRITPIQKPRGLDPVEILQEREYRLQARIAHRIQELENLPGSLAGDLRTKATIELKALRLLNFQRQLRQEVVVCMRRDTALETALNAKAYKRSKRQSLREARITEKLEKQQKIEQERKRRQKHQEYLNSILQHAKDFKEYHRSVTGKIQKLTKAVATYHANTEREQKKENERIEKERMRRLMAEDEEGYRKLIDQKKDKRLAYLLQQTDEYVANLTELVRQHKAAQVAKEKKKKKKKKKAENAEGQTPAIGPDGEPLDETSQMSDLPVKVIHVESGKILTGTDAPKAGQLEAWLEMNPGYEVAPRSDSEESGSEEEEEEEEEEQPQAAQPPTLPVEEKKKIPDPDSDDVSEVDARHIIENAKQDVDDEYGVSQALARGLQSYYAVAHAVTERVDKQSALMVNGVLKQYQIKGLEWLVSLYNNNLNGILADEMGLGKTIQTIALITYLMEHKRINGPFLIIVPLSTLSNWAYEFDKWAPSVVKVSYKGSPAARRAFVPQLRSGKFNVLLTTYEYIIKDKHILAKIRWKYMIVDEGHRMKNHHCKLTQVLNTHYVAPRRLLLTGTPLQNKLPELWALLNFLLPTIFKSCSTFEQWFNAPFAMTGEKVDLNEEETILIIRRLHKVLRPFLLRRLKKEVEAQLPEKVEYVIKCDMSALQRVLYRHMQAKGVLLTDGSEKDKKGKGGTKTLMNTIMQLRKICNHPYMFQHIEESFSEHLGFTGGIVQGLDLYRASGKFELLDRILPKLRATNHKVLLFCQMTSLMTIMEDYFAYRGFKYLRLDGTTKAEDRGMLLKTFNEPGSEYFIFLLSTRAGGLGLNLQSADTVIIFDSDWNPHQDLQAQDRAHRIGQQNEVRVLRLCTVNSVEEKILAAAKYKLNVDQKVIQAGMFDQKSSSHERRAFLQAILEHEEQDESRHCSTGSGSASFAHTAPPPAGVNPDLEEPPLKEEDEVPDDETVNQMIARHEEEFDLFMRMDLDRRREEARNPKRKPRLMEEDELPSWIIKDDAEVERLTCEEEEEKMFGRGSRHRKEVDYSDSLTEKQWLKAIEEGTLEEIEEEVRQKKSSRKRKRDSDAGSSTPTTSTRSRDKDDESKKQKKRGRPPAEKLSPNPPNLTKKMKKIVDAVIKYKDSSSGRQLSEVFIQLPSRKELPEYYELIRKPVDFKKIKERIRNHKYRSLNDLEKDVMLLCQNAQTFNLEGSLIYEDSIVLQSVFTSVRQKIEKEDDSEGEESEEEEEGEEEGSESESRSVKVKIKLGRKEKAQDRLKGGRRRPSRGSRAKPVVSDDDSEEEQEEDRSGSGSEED
Assay: Binding affinity to human SMARCA4 expressed in BL21 (DE3)-R3-BirA cells assessed as change in melting temperature at 10 uM by sypro-orange dye-based differential scanning fluorimetric analysis
Type: cell-based
property label: ΔTm (°C)

// solved cases for ΔTm follow
• O=C(/C=C/N1CCC(c2cc[nH]n2)CC1)c1ccccc1O = 6.3
• O=C(/C=C/N1CCCC1)c1ccccc1O = 4.7
• O=C(/C=C/N1CCc2c(ncnc2NC2CC2)C1)c1ccccc1O = 7.7
• O=C(/C=C/N1CCc2c(ccnc2N[C@H]2CC[C@H](O)CC2)C1)c1ccccc1O = 6.1

1: CC(C)(C)c1nc2c(n1CC1CC1)CCN(/C=C/C(=O)c1ccccc1O)C2
2: C#CCNc1ccnc(N2C[C@H]3C[C@@H]2CN3/C=C/C(=O)c2cccc(OC)c2O)n1
IN: Compare the recorded ΔTm of 1 and 2 ; state which is larger. Refer to your chosen entry by its label in the reply.
OUT: 1
(1: 5.8 °C, 2: 0.7 °C)
